The binders listed here are annotated with their pKd.
- target_or_test_system: T1, human CD3 E&D complex protein (Sino Biological Inc., CT026H0323H) (human, UniProt P07766 23-126; P04234 22-105)
- T1 construct: bought heterodimer; also called human CD3 protein (CT026H0323H)
- T1 sequence (P07766 23-126, chain 1 of 2): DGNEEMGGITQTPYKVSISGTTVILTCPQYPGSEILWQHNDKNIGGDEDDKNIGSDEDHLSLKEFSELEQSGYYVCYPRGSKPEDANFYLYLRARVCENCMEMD
- T1 sequence (P04234 22-105, chain 2 of 2): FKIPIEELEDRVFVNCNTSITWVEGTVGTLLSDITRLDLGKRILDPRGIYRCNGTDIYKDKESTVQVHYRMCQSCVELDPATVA
- method_description: BLI, antibody on sensor
pKd: −log10 of the molar value.

{"binder": "hzsp34.101 (antibody, human IgG1, lambda, L234A L235A, V domains shown, CDR mutant of hzsp34.24; IgG1 L234A L235A, lambda) VH: EVQLVESGGGLVQPGGSLKLSCAASGFTFNTYAMNWVRQASGKGLEWVGRIRSKYNNYATYYADSVKDRFTISRDDSKSTLYLQMNSLKTEDTAVYYCARHGNFGQSAASWFAYWGQGTTVTVSS VL: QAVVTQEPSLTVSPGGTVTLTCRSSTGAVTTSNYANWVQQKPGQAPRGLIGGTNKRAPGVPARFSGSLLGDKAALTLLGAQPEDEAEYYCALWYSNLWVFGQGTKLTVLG", "pKd": 8.42}
{"binder": "hzsp34.113 (antibody, human IgG1, lambda, L234A L235A, V domains shown, CDR mutant of hzsp34.24; IgG1 L234A L235A, lambda) VH: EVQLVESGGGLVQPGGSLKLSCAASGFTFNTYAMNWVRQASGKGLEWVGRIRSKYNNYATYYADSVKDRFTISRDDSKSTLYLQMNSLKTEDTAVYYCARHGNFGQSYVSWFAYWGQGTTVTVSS VL: QAVVTQEPSLTVSPGGTVTLTCRSSTGAVTTSNYANWVQQKPGQAPRGLIGGTNKRAPGVPARFSGSLLGDKAALTLLGAQPEDEAEYYCALAASNLWVFGQGTKLTVLG", "pKd": 8.99}
{"binder": "hzsp34.81 (antibody, human IgG1, lambda, L234A L235A, V domains shown, CDR mutant of hzsp34.24; IgG1 L234A L235A, lambda) VH: EVQLVESGGGLVQPGGSLKLSCAASGFTFNTYAMNWVRQASGKGLEWVGRISSKYNNYATYYADSVKDRFTISRDDSKSTLYLQMNSLKTEDTAVYYCARHGNFGQSYVSWFAYWGQGTTVTVSS VL: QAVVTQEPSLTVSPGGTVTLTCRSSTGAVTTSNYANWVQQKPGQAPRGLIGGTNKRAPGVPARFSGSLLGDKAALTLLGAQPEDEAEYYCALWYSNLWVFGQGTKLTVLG", "pKd": 8.11}
